Consider the following pIC50 values measured on CYP2D6 (Homo sapiens, UniProt P10635).
Sequence (P10635 whole entry): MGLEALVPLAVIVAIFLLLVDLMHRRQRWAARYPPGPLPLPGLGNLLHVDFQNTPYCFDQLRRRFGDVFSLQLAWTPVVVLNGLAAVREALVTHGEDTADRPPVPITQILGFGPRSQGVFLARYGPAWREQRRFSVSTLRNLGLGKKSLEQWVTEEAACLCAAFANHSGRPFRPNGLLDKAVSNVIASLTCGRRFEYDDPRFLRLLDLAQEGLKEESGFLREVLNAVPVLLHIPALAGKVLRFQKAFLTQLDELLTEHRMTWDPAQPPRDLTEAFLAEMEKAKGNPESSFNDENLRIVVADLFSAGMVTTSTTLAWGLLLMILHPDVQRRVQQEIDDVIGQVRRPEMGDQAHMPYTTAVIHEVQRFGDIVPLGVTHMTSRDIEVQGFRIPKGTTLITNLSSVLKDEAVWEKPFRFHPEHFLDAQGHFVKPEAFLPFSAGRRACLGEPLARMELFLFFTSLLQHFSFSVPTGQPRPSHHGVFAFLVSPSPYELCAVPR
pIC50: −log10 of the molar value.
measuredEndpoint: pIC50

molecule="C[C@@H]1CN(c2cc(F)c(OCCO)c(Cl)c2)[C@H]2CCCC[C@@H]2N1 [Example 17]" result="< 4.00"
molecule="CC1(C)CN(c2ccc(OC(F)(F)CO)cc2)[C@@H]2CCCC[C@H]2N1 [Example 21]" result="< 4.00"
molecule="CC1(C)CN(c2ccc(OCCO)c(Cl)c2)[C@H]2CCCC[C@@H]2N1 [Example 27]" result="< 4.00"

* * *

Entries annotated with measured IC50
target: dopamine (DA) uptake (Rattus norvegicus); construct: used as crude synaptosomal fraction; from tissue; host or cells: rat striatum, crude synaptosomal fraction; assay: Dopamine (DA) uptake inhibitory activity using rat brain synaptosome; assay type: biochemical; conditions: rat striatum synaptosome, tritium-labeled DA 2 nM; read-out: IC50 (nM), dopamine (DA) uptake inhibition
Sequence (P23977 whole entry): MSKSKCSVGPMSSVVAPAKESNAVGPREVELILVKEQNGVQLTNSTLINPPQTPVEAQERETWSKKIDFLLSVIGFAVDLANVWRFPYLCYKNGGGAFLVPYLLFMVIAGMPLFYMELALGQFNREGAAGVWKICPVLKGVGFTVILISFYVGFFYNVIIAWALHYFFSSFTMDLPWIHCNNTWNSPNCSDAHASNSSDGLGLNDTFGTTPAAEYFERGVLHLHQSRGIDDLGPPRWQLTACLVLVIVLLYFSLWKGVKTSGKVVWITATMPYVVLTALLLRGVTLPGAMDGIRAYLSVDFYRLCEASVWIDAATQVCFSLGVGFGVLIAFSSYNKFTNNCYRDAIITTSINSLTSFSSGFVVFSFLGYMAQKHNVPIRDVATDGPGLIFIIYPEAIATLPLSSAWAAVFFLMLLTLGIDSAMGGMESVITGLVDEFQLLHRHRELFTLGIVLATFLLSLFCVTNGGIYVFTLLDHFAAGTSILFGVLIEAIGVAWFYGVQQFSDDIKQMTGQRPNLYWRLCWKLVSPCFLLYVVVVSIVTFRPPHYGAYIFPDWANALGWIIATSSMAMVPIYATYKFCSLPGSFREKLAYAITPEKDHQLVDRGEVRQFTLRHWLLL
measuredEndpoint: IC50 (nM)

compound="Cc1cc(N2CC(C)(C)N[C@@H]3CCCC[C@@H]32)cc(F)c1OC(F)(F)CO [Example 58]" recordednumber=58.4
compound="CC1(C)CN(c2ccc(OCCO)c(Br)c2F)[C@H]2CCCC[C@H]2N1 [Example 63]" recordednumber=85.1
compound="CC1(C)CN(c2ccc(OC(F)(F)CO)cc2F)[C@H]2CCCC[C@H]2N1 [Example 61]" recordednumber=60.2
compound="CC1(C)CN(c2ccc(OCCO)c3occc23)[C@H]2CCCC[C@H]2N1 [Example 51]" recordednumber=41.1
compound="C[C@H]1CN(c2cc(F)c(OCCO)c(Cl)c2)[C@H]2CCCC[C@H]2N1 [Example 18]" recordednumber=42.9
compound="Cc1c(OC(F)(F)CO)ccc(N2CC(C)(C)N[C@@H]3CCCC[C@@H]32)c1F [Example 70]" recordednumber=44.5
compound="Cc1c(OC(F)(F)CO)ccc(N2CC(C)(C)N[C@H]3CCCC[C@H]32)c1F [Example 69]" recordednumber=91.4
compound="COc1cc(N2CC3(CCC3)N[C@H]3CCCC[C@@H]32)ccc1OCCO [Example 11]" recordednumber=97.9
compound="CC1(C)CN(c2ccc(OC(F)(F)CO)c(F)c2F)[C@H]2CCCC[C@H]2N1 [Example 73]" recordednumber=68.7
compound="CC1(C)CN(c2cc(F)c(OC(F)(F)CO)cc2F)[C@H]2CCCC[C@@H]2N1 [Example 77]" recordednumber=205
compound="CC1(C)CN(c2cc(F)c(OCCO)cc2F)[C@H]2CCCC[C@H]2N1 [Example 72]" recordednumber=241
compound="CC1(C)CN(c2ccc(OCCO)c(F)c2)[C@H]2CCCC[C@H]2N1 [Example 52]" recordednumber=74.4
compound="CC1(C)CN(c2ccc(OCCO)c3occc23)[C@@H]2CCCC[C@@H]2N1 [Example 50]" recordednumber=214
compound="CC1(C)CN(c2ccc(OCCO)cc2Cl)[C@H]2CCCC[C@H]2N1 [Example 64]" recordednumber=78.9
compound="CC1(C)CN(c2ccc(OC(F)(F)CO)cc2)[C@H]2CCCC[C@@H]2N1 [Example 20]" recordednumber=90.9
compound="CC1(C)CN(c2cc(F)c(OCCO)c(F)c2)[C@H]2CCCC[C@H]2N1 [Example 36]" recordednumber=25.6
compound="CC1(C)CN(c2ccc(OC(F)(F)CO)cc2)[C@@H]2CCCC[C@H]2N1 [Example 21]" recordednumber=199
compound="CC1(C)CN(c2cc(Cl)c(OC(F)(F)CO)cc2F)[C@H]2CCCC[C@@H]2N1 [Example 75]" recordednumber=35.3
compound="CC1(C)CN(c2ccc(OCCO)c(Cl)c2)[C@@H]2CCCC[C@H]2N1 [Example 28]" recordednumber=76.5
compound="C[C@@H]1CN(c2ccc(OC(F)(F)CO)c(Cl)c2)[C@H]2CCCC[C@@H]2N1 [Example 19]" recordednumber=47.4
compound="CN1[C@H]2CCCC[C@@H]2N(c2ccc(OC(F)(F)CO)cc2)CC1(C)C [Example 37]" recordednumber=81.9
compound="Cc1cc(N2CC(C)(C)N[C@H]3CCCC[C@@H]32)ccc1OC(F)(F)CO [Example 31]" recordednumber=56.4
compound="CC1(C)CN(c2cc(F)c(OCCO)c(F)c2)[C@@H]2CCCC[C@H]2N1 [Example 35]" recordednumber=59.7
compound="CC1(C)CN(c2ccc(OCCO)c(Cl)c2)[C@H]2CCCC[C@@H]2N1 [Example 27]" recordednumber=99
